System: ACHN renal
experimental.protocol: NCI-60 one-dose screen, 48 h (100 = growth as untreated, 0 = no growth, -100 = all killed)
stated.conditions: 10 µM unless noted
Compounds without any hit were thinned out: in the full panel of roughly 83,000, 20% have a hit.
measured.endpoint: growth (%)
The reply should be a number in %, with the unit left off.

Record excerpt, results attached:
Cn1cc(-c2csc(-c3cn(C(=O)OC(C)(C)C)c4ccccc34)n2)c2ccnc(Cl)c21 ... 32.7
O=C(O)CCCc1cnc2c3sccc3nc(SCc3c(Cl)cccc3Cl)n12 ... 61.1
COC(=O)/C=C1/SC(=Nc2cccc(Cl)c2)N(CCc2c[nH]c3ccc(O)cc23)C1=O ... 15.9
Cn1cc(-c2ccc3cc(-c4ccc(CC(=O)Nc5cc(C(C)(C)C)on5)cc4)cnc3c2)cn1 ... -23
N=C(N)c1ccc(-c2ccc(-c3ccc(Cl)cc3)o2)o1 ... 28.3

Item Cc1cc2oc(=O)cc(CP(=O)(O)O)c2cc1O has what recorded growth?
101

Moving on to the next compound: O=C1/C(=C/c2ccccc2)CN(C(=O)c2cccnc2)C/C1=C\c1ccccc1
-15.7

What would you report for O=C(O)c1cccc(N/C=C/C(=O)c2cc3cc(Br)ccc3oc2=O)c1 ?
102

Now give it for CCCCCCNc1nc(NCCCCCC)c2[nH]c(NCCCCCC)nc2n1 too.
100

Moving on to the next compound: CC(O)c1ncc(/C=C2\SC(=S)N(Cc3ccccc3)C2=O)s1 (centres undefined)
95.6

Lookup Cn1ncc2ccc(-c3nc(-c4ccccc4)[nH]c3-c3n[nH]c(=O)n3C3CC3)cc21
97

Another compound: Cc1ccc(S(=O)(=O)n2cc(C3C(Cl)C(=O)N3c3ccc(N4CCOCC4=O)cc3)c3ccccc32)cc1 (centres undefined)
71.4

Would you kindly repeat that for O=C(CN1CCN(c2cc3c(cc2F)c(=O)c(C(=O)O)cn3C2CC2)CC1)N/N=C/c1ccncc1 ?
99.6

Hey, just so you know, these numbers are from PubChem BioAssay (NCI).
